Where do these numbers come from? They come from PubChem BioAssay (NCI).

system: MALME-3M melanoma; experiment: NCI-60 one-dose screen, 48 h (100 = growth as untreated, 0 = no growth, -100 = all killed); conditions: 10 µM unless noted
Compounds without any hit were thinned out: in the full panel of roughly 83,000, 20% have a hit.
hey, just use Condition met if measured growth is less than 60%, otherwise Condition not met

# TODO verify growth < 60% strictly for this compound: Cc1nc2sc(C(=O)Nc3ccccc3)c(N)c2cc1C(=O)c1ccc(C(F)(F)F)cc1
Condition not met

Lookup COc1ccc(Cn2nc(-c3cc(OC)c(OC)c(OC)c3)c3c2CCc2cnoc2-3)cc1OC
Condition not met

Try this compound next: COc1ccc(C(O)c2cc3c(N)c(C(=O)Nc4cccc(OC)c4)sc3nc2C)cc1 (stereo not given)
Condition met

Next compound up: COc1ccc2nc(N=Nc3c(O)ccc4ccccc34)sc2c1
Condition met

Param item: COC(=O)N[C@H]1CCc2cc(OC)c(OC)c(OC)c2-c2ccc(SC)c(=O)cc21
Condition met

###

tested on: MOLT-4 leukemia; assay: NCI-60 one-dose screen, 48 h; conditions: 10 µM unless noted
The panel holds about 83,000 compounds, 20% with a hit somewhere; the sample as a whole holds those more often. Active and inactive are the calls of the source. Rule for the calls: active = growth percent below 10; inactive = the rest.
Choose the fitting class; nothing outside 1 (yes) (active), 0 (no) (inactive) is accepted.

What was the test verdict on COc1cc(/C=C/C(=O)c2ccc(Nc3ncnc4ccccc34)cc2)cc(OC)c1 ?
0 (no)

Please give the result for Cc1ccc(O)c(C(=O)O)c1 too.
0 (no)

Also need Clc1ccc(C2CC(c3cccc(Nc4ccncc4)c3)=NN2c2ccccc2)cc1 (stereo unspecified) , thanks.
1 (yes)

Please do the same for Cc1cccc(Oc2ccc(Nc3ncnc4ccc(NC(=O)CNCCO)cc34)cc2Cl)c1 as well.
0 (no)

And for COc1ccc(-c2nn(Cc3ccccc3)c3c2-c2oncc2CC3)cc1OC ?
0 (no)

Also need O=C(Nc1ccc(Nc2ncccn2)cc1)NC1C=c2ccccc2=CC1 (stereo unspecified) , thanks.
0 (no)

###

test system: NCI-H460 lung; test: NCI-60 one-dose screen, 48 h; conditions: 10 µM unless noted
Compounds without any hit were thinned out: in the full panel of roughly 83,000, 20% have a hit. Active and inactive are the calls of the source. Rule for the calls: active = growth percent below 10; inactive = the rest.
Use one of these outcomes when replying: active, inactive

Outcome logged for CN1C(=O)N(C)[C@H]2NC(NN)=N[C@H]21 in this assay:
inactive

Try CCCCCN1C=C/C(=C\C(=O)N(C)c2cccc3ccccc23)c2ccccc21 next.
inactive

Another: CCC(C)C(N)C(=O)NNc1n[nH]c(=S)n1N (stereo not given)
inactive

Also O=C(N/N=C/c1ccc(O)c(O)c1)c1sc2ccccc2c1Cl , if possible.
inactive

Also, O=C(O)/C=C\C(=O)N1C/C(=C\c2ccccc2Cl)C(=O)/C(=C/c2ccccc2Cl)C1 please.
active

Also, O=S(=O)(O)c1cc(O)c2c(N=Nc3ccc(Nc4ccccc4)c4c(S(=O)(=O)O)cccc34)cc(S(=O)(=O)O)cc2c1 please.
inactive

Here is the next compound: O=c1nc2n(nc1/C=C/c1ccco1)CC(c1ccc(Cl)cc1)=NN2
inactive

What about COc1ccc(CC(C)=C(c2ccc(OCCN(C)C)cc2)c2ccc(OCCN(C)C)cc2)cc1 ?
inactive

Entry OC(c1ccccc1)c1ccccn1 (stereo not given) please
inactive

Query CCN1C(=O)/C(=c2\sc3n(c2=O)NC2C(N=3)N(CC)C(=O)N2CC)c2ccccc21 (stereo not given) next
inactive

###

tested on: A549/ATCC NSCLC; test: NCI-60 one-dose screen, 48 h (100 = growth as untreated, 0 = no growth, -100 = all killed); conditions: 10 µM unless noted
The panel holds about 83,000 compounds, 20% with a hit somewhere; the sample as a whole holds those more often.
Parameter threshold = 90%. Response is yes when growth meets or exceeds it, else no.

Decide: growth of Cc1ccc(C2CC(c3cccc(Nc4ccncc4)c3)=NN2c2cc(Cl)cc(Cl)c2)cc1 (stereo unspecified) >= 90%?
no

Repeat with N#CSCC1CC(O)(c2ccccc2)C(c2ccccc2)C(c2ccc(F)cc2)O1 (stereo unspecified)
no

Try this compound next: O=C(OCc1nc2nc(Cl)nc(N3CCOCC3)c2[nH]1)n1ccnc1
no

Continue with CCN(CC)CCSCCCNc1c(C)cnc2cc(Cl)ccc12
yes

Follow-up entry: O=C1NC(=S)NC(=O)C1=Cc1cccc(C=C2C(=O)NC(=S)NC2=O)c1
yes

And the next one, COc1ccc(/C=N/NC(=O)c2cccc3cc[nH]c23)cc1O ?
no

Next up: Brc1ccc(C2CC(c3cccc(Nc4ccncc4)c3)=NN2c2ccccc2)cc1 (stereo unspecified)
no

###

tested on: SK-MEL-2 melanoma; assay: NCI-60 one-dose screen, 48 h; settings: 10 µM unless noted
About 83,000 compounds went through this panel and 20% of them were active in at least one assay; those are over-represented in the sample as a whole. Activity calls are given as the source filed them. The calls were made as follows: active = growth percent below 10; inactive = the rest.
Please state which outcome applies, choosing from active, inactive

I'd appreciate the recorded outcome for O=C1Nc2cc(-c3ccncc3)ccc2/C1=C/c1ccc[nH]1 from this test.
inactive

Now consider COc1cc2nc(-c3ccc(C(F)(F)F)cc3)cc(OCCCN3CCC(O)CC3)c2cc1OC .
inactive

Same read-out for O=C(Nc1ccc2cc3ccc(NC(=O)NC4CCCCC4)cc3nc2c1)NC1CCCCC1 ?
inactive

COc1ccc(C(=O)/C=C/c2c(OC)cc(OC)cc2OC)c(OC)c1 , same question.
active

Same read-out for COc1ccccc1Nc1cc(O)c2c(=O)cc(-c3ccccc3)oc2c1 ?
inactive

Could you do the same for Cc1[nH]n(C(=O)c2ccncc2)c(=O)c1N=Nc1ccc(F)c(Cl)c1 , please?
inactive

Continue with c1ccc(-c2nn(-c3ccccc3)[n+](-c3ccccc3-c3ccccc3)n2)cc1
active

What do you have for COc1ccc(C2=C(c3ccccc3)c3ccc(OC(C)=O)cc3OC2(C)C)cc1 ?
inactive

Another molecule: Clc1nc(Cl)c2ncn(CC3(Cn4cnc5c(Cl)nc(Cl)nc54)COC3)c2n1
active

Note, next up: O=C(N/N=C/c1ccc(O)c(O)c1)c1sc2ccccc2c1Cl
active

###

system: ACHN renal; assay: NCI-60 one-dose screen, 48 h (100 = growth as untreated, 0 = no growth, -100 = all killed); settings: 10 µM unless noted
The panel holds about 83,000 compounds, 20% with a hit somewhere; the sample as a whole holds those more often.
Exercise: state measured growth for each of the molecules provided.
The answer is to be given in %; state only the numeric part.

Which growth value is on record for CCCCCN1C=C/C(=C\C(=O)N(C)c2cccc3ccccc23)c2ccccc21 ?
104

Further, for CN1CCCC1=Nc1ccccc1 ?
115

Would you kindly repeat that for C=C(C)[C@@H]1CC[C@]2(C(=O)NCC(=O)OC)CC[C@]3(C)[C@H](CC[C@@H]4[C@@]5(C)Cc6c([nH]c7ccccc67)C(C)(C)[C@@H]5CC[C@]43C)[C@@H]12 ?
60.5

Now the molecule NC(=S)N/N=C/c1ccc(OC(=O)COc2cc(Cl)c(Cl)cc2Cl)cn1
18.4

Now the molecule COc1ccc(OC)c(/C=C/[C@H]2O[C@@H](C)[C@H](O)[C@@H]2O)c1
106

Cool, now COc1ccc(C2=C(c3ccccc3)c3ccc(OC(C)=O)cc3OC2(C)C)cc1
76.3

Repeat for the following molecule: O=c1[nH]c2c(s1)CCCC2CN1CCCCC1 (centres undefined)
97.6

Here is the next molecule: CNC(=O)c1c(NC(=O)c2ccc(C(C)C)cc2)sc2c(CN(C)C)c(O)ccc12
66.6

Would you kindly repeat that for Clc1ccc(C2CC(c3cccc(Nc4ccncc4)c3)=NN2c2ccc(Cl)cc2)cc1 (centres undefined) ?
-66.6

###

tested on: RXF 393 renal; assay: NCI-60 one-dose screen, 48 h; settings: 10 µM unless noted
About 83,000 compounds went through this panel and 20% of them were active in at least one assay; those are over-represented in the sample as a whole. Active and inactive are the calls of the source. Rule for the calls: active = growth percent below 10; inactive = the rest.
// one of active, inactive, no free text

Give the logged outcome of this assay for the following compound: Clc1ccc2c(c1)c(-c1ccccc1)nc1nncn12
inactive

Now give it for CCCCCCc1nc2nc(Cl)c(Cl)nc2[nH]1 too.
inactive

Ok, now N#CSCC1CC(O)(c2ccccc2)C(c2ccccc2)C(c2ccc(F)cc2)O1 (configuration not stated)
inactive

What about C(=C\c1n(Cc2ccc3ccccc3c2)c(-c2ccccc2)c(-c2ccccc2)[n+]1Cc1ccc2ccccc2c1)/c1ccccc1 ?
active

Follow-up item: O=C1OC(=O)C2C1CC=CC2c1ccccc1 (configuration not stated)
inactive

Record: CN1CCCC1=Nc1ccccc1
inactive

Here is the next compound: COc1ccc(/C(=C\c2ccccc2)C(=O)O)cc1OC
inactive

Next compound up: Cc1c(C(=O)NO)sc2ncnc(Nc3ccc(NC(=S)Nc4ccccc4)cc3)c12
inactive

Same lookup for O=c1[nH]c(=O)[nH]c(=S)[nH]1 , please.
inactive

And then C#CC(=O)Nc1cccc2c1cc(C)n2-c1nc2c(c(NCc3ccccc3)n1)CCCC2 , what is it?
active

And for O=C(CCN1CCCC1)Nc1ccc2c(Nc3ccccc3)c3ccccc3nc2c1 ?
active

For Cc1cc2nc(-c3ccccc3)c(-c3ccccc3)nc2cc1C then?
inactive

Also CCC(=O)c1ccc(O)c(OC)c1 ?
inactive

Also check N#CC1=C(N)Oc2c(ccc3ccccc23)C1c1ccc([N+](=O)[O-])cc1 (configuration not stated)
inactive

Next entry: COc1ccc(CC(C)=C(c2ccc(OCCN(C)C)cc2)c2ccc(OCCN(C)C)cc2)cc1
inactive

Now consider C=C1C(=O)O[C@H]2[C@H]1CC/C(CNC(=O)/C=C/c1ccc(Br)cc1)=C\CC[C@@]1(C)O[C@@H]21 and answer again.
active

Follow-up entry: COc1ccc(C(=O)c2cc(C)c(OC)c(C)c2)c(OC)c1O
inactive

Same read-out for N#Cc1cc(-c2nc3ccccc3s2)c(=O)n(NS(=O)(=O)c2ccc(Cl)cc2)c1N ?
inactive

Quick one: O=C(N=Nc1c(O)[nH]c2ccc(F)cc12)c1cc2ccccc2[nH]1
inactive

Now consider NNC(=O)/C(=C\c1ccc([N+](=O)[O-])cc1)CC(=O)c1ccc(Cl)c(Cl)c1 and answer again.
inactive

Also check Fc1cc(C2=NNC(c3ccc[nH]3)C2)ccc1-n1ccc(C(F)(F)F)n1 (configuration not stated)
inactive

Same again, this time with O=C(CSc1nc2sc3c(c2c(=O)n1Cc1ccccc1)CCCC3)N1CCN(c2ccccc2)CC1
inactive
